tested-on: TNKS2 (Homo sapiens, UniProt Q9H2K2)
Sequence (Q9H2K2 1-1166): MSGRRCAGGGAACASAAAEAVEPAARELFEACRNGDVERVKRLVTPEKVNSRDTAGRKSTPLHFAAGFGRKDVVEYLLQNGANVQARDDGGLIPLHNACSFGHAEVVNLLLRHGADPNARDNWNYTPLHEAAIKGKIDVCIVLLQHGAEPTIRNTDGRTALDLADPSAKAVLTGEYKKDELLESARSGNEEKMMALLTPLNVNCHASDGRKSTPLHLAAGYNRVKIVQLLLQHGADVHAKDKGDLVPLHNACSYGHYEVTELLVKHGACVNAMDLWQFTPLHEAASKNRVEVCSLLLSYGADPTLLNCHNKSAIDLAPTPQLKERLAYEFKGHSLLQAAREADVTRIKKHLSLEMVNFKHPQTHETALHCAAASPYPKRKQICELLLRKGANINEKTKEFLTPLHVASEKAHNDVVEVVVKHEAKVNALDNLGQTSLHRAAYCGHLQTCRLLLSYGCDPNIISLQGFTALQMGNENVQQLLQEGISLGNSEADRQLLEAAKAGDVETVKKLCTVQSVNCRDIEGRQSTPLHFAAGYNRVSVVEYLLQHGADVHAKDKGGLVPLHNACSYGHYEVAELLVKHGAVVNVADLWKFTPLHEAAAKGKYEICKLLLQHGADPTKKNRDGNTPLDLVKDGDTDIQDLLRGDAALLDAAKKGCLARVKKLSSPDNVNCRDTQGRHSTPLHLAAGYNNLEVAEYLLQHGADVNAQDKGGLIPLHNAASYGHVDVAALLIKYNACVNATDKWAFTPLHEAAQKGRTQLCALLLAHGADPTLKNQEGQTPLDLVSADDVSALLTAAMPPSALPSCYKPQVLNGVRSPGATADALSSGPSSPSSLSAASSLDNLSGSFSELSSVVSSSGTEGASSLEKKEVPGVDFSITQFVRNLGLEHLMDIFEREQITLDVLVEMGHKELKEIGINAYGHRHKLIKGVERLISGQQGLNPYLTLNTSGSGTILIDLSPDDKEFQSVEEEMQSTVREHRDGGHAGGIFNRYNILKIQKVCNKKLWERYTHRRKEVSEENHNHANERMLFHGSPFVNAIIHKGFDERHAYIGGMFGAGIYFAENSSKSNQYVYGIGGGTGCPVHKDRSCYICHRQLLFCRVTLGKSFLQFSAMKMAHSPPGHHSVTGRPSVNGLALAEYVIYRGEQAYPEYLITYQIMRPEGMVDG
experimental-details: Modified TNKS2 Assay 2 (auto-parsylation, [3H]-NAD+ SPA)
Assay type: biochemical
assay-setup: 6 nM TNKS2, 96 well
pIC50: −log10 of the molar value.
measured-quantity: pIC50

> print(dat)
                                   compound                             tested.on  result
1  CNC(=O)c1nc[nH]c1C(=O)Nc1ccc(NC(=O)c2cc(Cl)ccc2Cl)cc1  TNKS2 (Homo sapiens, UniProt Q9H2K2)    6.47
2  CNC(=O)c1nc[nH]c1C(=O)Nc1ccc(NC(=O)c2ccc(Br)cc2Cl)cc1  TNKS2 (Homo sapiens, UniProt Q9H2K2)    7.52
3  CCS(=N)(=O)c1ccc(C(=O)Nc2ccc(NC(=O)c3[nH]cnc3C(=O)NCCN3CCCCC3)cc2)c(Cl)c1 (stereo not shown)  TNKS2 (Homo sapiens, UniProt Q9H2K2)    8.00
4  CC(C)(CNC(=O)c1[nH]cnc1C(=O)Nc1ccc(NC(=O)c2ccc(F)cc2)cc1)N1CCCCC1  TNKS2 (Homo sapiens, UniProt Q9H2K2)    6.34

====

tested-on: TNKS2 (Homo sapiens, UniProt Q9H2K2)
Sequence (Q9H2K2 1-1166): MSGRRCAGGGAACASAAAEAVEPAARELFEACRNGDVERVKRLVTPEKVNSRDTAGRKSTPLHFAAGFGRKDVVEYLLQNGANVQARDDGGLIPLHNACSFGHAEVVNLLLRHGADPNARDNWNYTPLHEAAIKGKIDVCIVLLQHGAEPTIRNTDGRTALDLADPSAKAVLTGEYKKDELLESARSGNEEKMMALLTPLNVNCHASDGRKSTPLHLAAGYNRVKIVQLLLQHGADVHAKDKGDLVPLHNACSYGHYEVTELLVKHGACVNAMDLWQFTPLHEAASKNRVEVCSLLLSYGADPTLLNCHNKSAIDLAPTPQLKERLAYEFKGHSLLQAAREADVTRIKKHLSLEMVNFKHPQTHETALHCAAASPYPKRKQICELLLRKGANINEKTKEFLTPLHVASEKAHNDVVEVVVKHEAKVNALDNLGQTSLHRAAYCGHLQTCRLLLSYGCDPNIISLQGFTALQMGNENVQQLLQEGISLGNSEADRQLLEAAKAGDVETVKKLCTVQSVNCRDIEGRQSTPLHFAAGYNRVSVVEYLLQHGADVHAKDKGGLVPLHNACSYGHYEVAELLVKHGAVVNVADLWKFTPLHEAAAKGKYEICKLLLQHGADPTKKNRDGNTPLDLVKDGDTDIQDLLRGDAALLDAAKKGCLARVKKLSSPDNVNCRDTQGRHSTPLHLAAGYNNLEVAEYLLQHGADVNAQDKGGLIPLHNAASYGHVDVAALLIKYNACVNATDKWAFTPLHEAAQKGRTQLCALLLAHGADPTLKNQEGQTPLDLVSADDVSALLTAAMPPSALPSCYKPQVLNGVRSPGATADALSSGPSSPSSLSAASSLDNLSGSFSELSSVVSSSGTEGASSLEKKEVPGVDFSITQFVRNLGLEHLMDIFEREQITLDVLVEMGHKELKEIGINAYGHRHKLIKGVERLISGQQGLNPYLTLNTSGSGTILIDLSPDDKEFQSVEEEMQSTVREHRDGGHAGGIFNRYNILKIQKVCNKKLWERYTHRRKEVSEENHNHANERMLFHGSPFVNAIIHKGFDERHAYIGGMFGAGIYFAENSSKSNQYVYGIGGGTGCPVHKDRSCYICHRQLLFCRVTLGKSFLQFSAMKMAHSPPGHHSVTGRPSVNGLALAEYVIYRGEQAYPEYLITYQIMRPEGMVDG
experimental-details: Modified TNKS2 Assay 3 (BPS kit #80578, biotin-NAD+, 96 well)
Assay type: biochemical
assay-setup: human TNKS2, BPS kit #80578, 96 well
The entries below come with measured IC50 values attached.
measured-quantity: IC50

> print(dat)
                                 smiles.repr  measured.quantity    result
 1  CCNC(=O)c1[nH]cnc1C(=O)Nc1ccc(NC(=O)c2ccc(F)cc2Cl)cc1               IC50    150 nM
 2  O=C(Nc1ccc(NC(=O)c2[nH]cnc2C(=O)NCCN2CCCCC2)cc1F)c1ccc(F)cc1Cl               IC50  < 0.5 nM
 3  O=C(Nc1ccc(NC(=O)c2nc[nH]c2C(=O)N2CC3(COC3)C2)cc1)c1ccc(F)cc1Cl               IC50  > 500 nM
 4  O=C(Nc1ccc(NC(=O)c2[nH]cnc2C(=O)NCCC2CC2)cc1)c1cc(F)c(F)cc1Cl               IC50  > 500 nM
 5  O=C(Nc1ccc(NC(=O)c2[nH]cnc2C(=O)N2CC(F)C2)cc1)c1ccc(F)cc1Cl               IC50     70 nM
 6  CNC(=O)c1nc[nH]c1C(=O)Nc1ccc(NC(=O)c2ccc(S(C)(=O)=O)cc2Cl)cc1               IC50     10 nM
 7  CC1CCN(CCCNC(=O)c2nc[nH]c2C(=O)Nc2ccc(NC(=O)c3ccc(F)cc3Cl)cc2)CC1               IC50     20 nM
 8  CC(C)(N)CCNC(=O)c1[nH]cnc1C(=O)Nc1ccc(NC(=O)c2ccc(F)cc2Cl)cc1               IC50     10 nM
 9  CNC(=O)c1nc[nH]c1C(=O)Nc1ccc(NC(=O)c2ccc(C#N)cc2F)cc1               IC50     40 nM
10  CN(C)CCNC(=O)c1nc[nH]c1C(=O)Nc1ccc(NC(=O)c2ccc(F)cc2Cl)cc1               IC50     10 nM
11  CNC(=O)c1nc[nH]c1C(=O)Nc1ccc(NC(=O)c2ccccc2Cl)c(OC)c1               IC50     90 nM
12  NC(=O)c1nc[nH]c1C(=O)Nc1ccc(NC(=O)c2ccccc2Cl)cc1               IC50    140 nM
13  CNC(=O)c1nc[nH]c1C(=O)Nc1ccc(NC(=O)c2ccc(F)cc2Cl)nc1               IC50     40 nM
14  C[C@@H]1CCCN(CCNC(=O)c2[nH]cnc2C(=O)Nc2ccc(NC(=O)c3ccc(F)cc3Cl)cc2)C1               IC50      1 nM
15  CNC(=O)c1nc[nH]c1C(=O)Nc1ccc(NC(=O)c2c(C)cc(C)cc2C)cc1               IC50  > 500 nM
16  O=C(Nc1ccc(NC(=O)c2nc[nH]c2C(=O)NCCN2CCC(O)CC2)cc1)c1ccccc1Cl               IC50      1 nM
